# system.name: SARS-Cov-2 3CLpro (Severe acute respiratory syndrome coronavirus 2, UniProt P0DTD1)
# Construct: 3CLpro was added using a Multidrop Combi
# assay.protocol: SARS-Cov-2 3CLpro protease assay (SAMDI-MS)
# Format: biochemical
# condition.details: 30 mins preincubation, duplex peptide substrates; read-out: SARS-Cov-2 (3CLpro IC50)
value.type: IC50

1. C#CC(NC(=O)[C@@H]1[C@@H]2[C@H](CN1C(=O)[C@@H](NC(=O)C(F)(F)F)C(C)(C)C)[C@H]1C[C@@H]2[C@H](F)C1)c1cncc2ccccc12 (some centres unmarked); 20 to 200 nM
2. CC(C)(C)[C@H](NC(=O)C(F)(F)F)C(=O)N1C[C@H]2[C@@H]([C@H]1C(=O)NC(C#N)c1cnc3ccccn13)[C@H]1C=C[C@@H]2C1 (some centres unmarked); < 20 nM
3. CC(C)(C)[C@H](NC(=O)C(F)(F)F)C(=O)N1C[C@@H]2[C@H]3C[C@@H]([C@@H]2[C@H]1C(=O)NC(C#N)c1cncn1-c1ccccc1)[C@H](F)C3 (some centres unmarked); 20 to 200 nM
4. CC(C)(C)[C@H](NC(=O)C(F)(F)F)C(=O)N1C[C@@H]2[C@H]3C[C@@H]([C@@H]2[C@H]1C(=O)NC(C#N)c1cncc(Cl)c1Cl)[C@H](F)C3 (some centres unmarked); < 20 nM

The recorded IC50 with SARS-Cov-2 3CLpro (Severe acute respiratory syndrome coronavirus 2, UniProt P0DTD1) for COc1cccc2cncc([C@@H](C#N)NC(=O)[C@@H]3[C@@H]4[C@H](CN3C(=O)[C@@H](NC(=O)C(F)(F)F)C(C)(C)C)[C@H]3C[C@@H]4[C@H](F)C3)c12 was < 20 nM
